- system-tested: Ba/F3-T670I (KIT exon11 deletion (557-558) and secondary mutation T670I) (Homo sapiens, UniProt P10721, DEL557-558/T670I)
- Construct: expressed in transfected cells; host or cells: Ba/F3 cells, lentiviral transduction (pLVX-IRES Puro)
- Sequence (P10721 with tags, fused parts or gaps DEL557-558/T670I): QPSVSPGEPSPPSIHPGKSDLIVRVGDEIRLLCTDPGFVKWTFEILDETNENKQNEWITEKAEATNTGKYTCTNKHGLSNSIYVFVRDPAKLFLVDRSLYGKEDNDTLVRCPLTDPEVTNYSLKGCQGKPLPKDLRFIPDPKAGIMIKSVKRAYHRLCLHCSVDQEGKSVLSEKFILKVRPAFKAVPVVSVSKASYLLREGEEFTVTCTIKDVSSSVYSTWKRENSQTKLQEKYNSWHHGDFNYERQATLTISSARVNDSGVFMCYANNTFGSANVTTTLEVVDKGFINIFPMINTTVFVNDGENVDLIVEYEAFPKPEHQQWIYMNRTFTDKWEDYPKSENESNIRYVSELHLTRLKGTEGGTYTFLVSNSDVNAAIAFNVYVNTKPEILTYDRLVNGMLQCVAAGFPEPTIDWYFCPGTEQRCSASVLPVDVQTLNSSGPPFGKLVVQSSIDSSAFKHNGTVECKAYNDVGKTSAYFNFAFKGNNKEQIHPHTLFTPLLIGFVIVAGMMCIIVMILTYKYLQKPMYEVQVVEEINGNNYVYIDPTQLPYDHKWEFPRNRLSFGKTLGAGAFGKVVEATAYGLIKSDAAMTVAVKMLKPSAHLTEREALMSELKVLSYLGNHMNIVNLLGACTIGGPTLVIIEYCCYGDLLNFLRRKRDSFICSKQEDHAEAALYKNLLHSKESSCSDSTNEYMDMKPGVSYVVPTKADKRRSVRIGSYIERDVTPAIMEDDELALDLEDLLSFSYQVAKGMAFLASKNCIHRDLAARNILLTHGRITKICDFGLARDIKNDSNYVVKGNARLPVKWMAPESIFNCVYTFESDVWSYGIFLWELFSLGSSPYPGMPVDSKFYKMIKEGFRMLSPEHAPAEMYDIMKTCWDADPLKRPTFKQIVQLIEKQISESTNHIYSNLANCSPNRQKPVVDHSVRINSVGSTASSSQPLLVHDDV
- assay-method-text: MTS viability assay, Ba/F3 expressing KIT exon11 deletion (557-558) and T670I
- Assay type: cell-based
- reported-conditions: 72 h incubation, top concentration 10 uM
Values of Ba/F3-T670I GI50 strictly less than 200 nM map to Criterion met, and values of at least 200 nM map to Criterion not met.

Confirm or reject: Ba/F3-T670I GI50 of COc1cc(OC)c2c(Nc3ccc(NC(=O)Cn4cc(C(C)C)nn4)cc3)ncnc2c1 [Example 22] lies strictly below 200 nM Criterion met

Confirm or reject: Ba/F3-T670I GI50 of COc1cc(OC2COC2)cc2ncnc(Nc3ccc(NC(=O)Cn4cc(C(C)C)nn4)cc3)c12 [Example 16] lies strictly below 200 nM Criterion not met

Confirm or reject: Ba/F3-T670I GI50 of COc1cc(OC(C)C)cc2ncnc(Nc3ccc(NC(=O)Cn4cc(C(C)C)nn4)cc3)c12 [Example 15] lies strictly below 200 nM Criterion not met

Confirm or reject: Ba/F3-T670I GI50 of COc1cc(OC)c2c(Nc3ccc(NC(=O)Cn4cc(C(C)C)nn4)cc3F)ncnc2c1 [Example 1] lies strictly below 200 nM Criterion met

Confirm or reject: Ba/F3-T670I GI50 of COc1cc(OCCN(C)C)cc2ncnc(Nc3ccc(NC(=O)Cn4cc(C(C)C)nn4)cc3)c12 [Example 17] lies strictly below 200 nM Criterion not met

Confirm or reject: Ba/F3-T670I GI50 of CCOc1cc(OC2COC2)cc2ncnc(Nc3ccc(NC(=O)Cn4cc(C(C)C)nn4)cc3)c12 [Example 9] lies strictly below 200 nM Criterion met

Confirm or reject: Ba/F3-T670I GI50 of CCOc1cc(OC)c2c(Nc3ccc(NC(=O)Cn4cc(C(C)C)nn4)cc3)ncnc2c1 [Example 18] lies strictly below 200 nM Criterion met

Confirm or reject: Ba/F3-T670I GI50 of COCCOc1cc(F)c2c(Nc3ccc(NC(=O)Cn4cc(C(C)C)nn4)cc3)ncnc2c1 [Example 12] lies strictly below 200 nM Criterion met
